# Assay procedure: Half life in Sprague-Dawley rat plasma at 10 mg/kg, po measured upto 480 mins by LC/MS-MS analysis
# Type: ADME, organism-based
Result type: half-life (h)

Compound: Br.CCCN(CCC)C1CCc2cccc(O)c2C1 (configuration not stated)
Result type: half-life
Reading: 0.45
--
Compound: COc1ccccc1OCCNCC1COC(c2ccccc2)(c2ccccc2)OC1.O=C(O)C(=O)O
Result type: half-life
Reading: 1.71

====

# Assay procedure: Apparent permeability from basolateral to apical side in dog MDCK2-MDR1 cells incubated for 120 mins by UV-visible spectrophotometry
# Type: ADME, cell-based, Canis lupus familiaris
# Applied conditions: MDCK-MDR1
Result type: Papp B→A at 2 h (×10⁻⁶ cm/s)

Line notation: COc1ccccc1OCCNCC1COC(c2ccccc2)(c2ccccc2)OC1.O=C(O)C(=O)O
Result type: Papp B→A at 2 h
Readout units: ×10⁻⁶ cm/s
Reading: 12.6
